molecular target: Gal(b1-3)[GlcNAc(b1-6)]GalNAc; test: glycan array binding signal (z-score within array); higher = stronger binding; settings: glycan notation: IUPAC condensed, linker removed
Only a selection was taken, and the strongest signals are over-represented in it overall.
Let's look at some binders and their measured glycan array binding signal (z-score).
Lab note: jot down the number only; don't add units.

Here are 2 binders together with their reported answers.
* XTP3-B-MRH1 (Homo sapiens), Q96DZ1 (protein) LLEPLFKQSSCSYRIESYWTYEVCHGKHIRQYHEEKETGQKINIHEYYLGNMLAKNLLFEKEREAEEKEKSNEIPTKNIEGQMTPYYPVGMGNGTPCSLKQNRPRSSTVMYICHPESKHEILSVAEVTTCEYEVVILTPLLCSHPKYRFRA | -0.389
* MPA (Maclura pomifera), P18674 (protein) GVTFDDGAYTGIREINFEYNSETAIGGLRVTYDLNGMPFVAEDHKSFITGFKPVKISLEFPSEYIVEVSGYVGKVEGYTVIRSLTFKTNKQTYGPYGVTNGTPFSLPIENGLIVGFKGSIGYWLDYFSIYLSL | -0.112

Proceed to the following item.
Consider the binder TREM-2 (Mus musculus), Q99NH8 (protein) MGPLHQFLLLLITALSQALNTTVLQGMAGQSLRVSCTYDALKHWGRRKAWCRQLGEEGPCQRVVSTHGVWLLAFLKKRNGSTVIADDTLAGTVTITLKNLQAGDAGLYQCQSLRGREAEVLQKVLVEVLEDPLDDQDAGDLWVPEESSSFEGAQVEHSTSRNQETSFPPTSILLLLACVLLSKFLAASILWAVARGRQKPGTPVVRGLDCGQDAGHQLQILTGPGGT and give its recorded glycan array binding signal (z-score).
-0.349
